Documented Kd across a set of molecules
target: Serine/threonine-protein kinase 17A (Homo sapiens, UniProt Q9UEE5); assay: Binding affinity to STK17A (unknown origin) by KINOMEscan scanMAX assay
Sequence (Q9UEE5 whole entry): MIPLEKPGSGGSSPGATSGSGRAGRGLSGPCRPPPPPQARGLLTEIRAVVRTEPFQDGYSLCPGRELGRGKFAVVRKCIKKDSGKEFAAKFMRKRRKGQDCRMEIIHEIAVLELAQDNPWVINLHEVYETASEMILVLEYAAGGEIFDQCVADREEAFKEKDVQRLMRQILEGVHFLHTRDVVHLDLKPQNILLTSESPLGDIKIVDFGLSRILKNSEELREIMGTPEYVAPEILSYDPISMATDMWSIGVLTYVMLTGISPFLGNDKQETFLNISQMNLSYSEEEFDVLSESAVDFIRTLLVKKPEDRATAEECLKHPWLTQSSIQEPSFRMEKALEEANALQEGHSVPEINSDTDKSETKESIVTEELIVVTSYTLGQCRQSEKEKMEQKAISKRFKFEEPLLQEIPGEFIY

# SMILES_REPRESENTATION, ASSAY_SYSTEM, Kd, µM
measured = [
    ("CSc1ccc(-c2cc3ncnc(SCC(=O)O)c3s2)cc1", "Serine/threonine-protein kinase 17A (Homo sapiens, UniProt Q9UEE5)", 0.23),
    ("O=C(O)CSc1ncnc2sc(-c3cc4ccccc4s3)cc12", "Serine/threonine-protein kinase 17A (Homo sapiens, UniProt Q9UEE5)", 9.8),
]

###

target: Serine/threonine-protein kinase pim-2 (Homo sapiens)
Sequence (Q9P1W9 whole entry): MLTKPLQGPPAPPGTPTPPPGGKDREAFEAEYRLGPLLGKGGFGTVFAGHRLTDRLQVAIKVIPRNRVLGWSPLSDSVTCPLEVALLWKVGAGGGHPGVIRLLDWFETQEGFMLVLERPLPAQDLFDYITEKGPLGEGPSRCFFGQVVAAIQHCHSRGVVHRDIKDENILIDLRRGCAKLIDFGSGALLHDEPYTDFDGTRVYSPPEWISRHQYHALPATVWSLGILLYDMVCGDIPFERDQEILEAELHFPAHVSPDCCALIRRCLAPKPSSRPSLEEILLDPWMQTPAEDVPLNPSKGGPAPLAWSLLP
pKd: −log10 of the molar value.

# SMILES_REPRESENTATION, ASSAY_SYSTEM, pKd
rows = [
    ("O=C(O)CSc1ncnc2cc(-c3cc4ccccc4s3)sc12", "Serine/threonine-protein kinase pim-2 (Homo sapiens)", 5.82),
]

Values compiled from ChEMBL document CHEMBL4715866.
